Ref: patent US20250388602A1

The reader will find reported pIC50 values listed item by item below.
Tested on: MOLM-13 cells
Test: MOLM-13 cell viability (Assay B), Cell Titer-Glo
Type: cell-based
Settings: Homo sapiens, MOLM-13; 72 hours; bins ≥10 nM-<100 nM and <10 nM; read-out: IC50 MOLM13 inhibition activity
pIC50: −log10 of the molar value.
Assay Metric: pIC50

[[record]]
compound = "Cc1cccc(-n2ncc3c2COC[C@H]3NC(=O)c2noc3c2CCCC3)c1Cl"
recorded_measurement = "> 8.00"

[[record]]
compound = "O=C(N[C@@H]1COCc2c1cnn2-c1ccccc1Cl)c1ncn2c1CCCC2"
recorded_measurement = "> 8.00"

[[record]]
compound = "CCc1c(C(=O)N[C@@H]2COCc3c2cnn3-c2ccccc2F)ncn1C"
recorded_measurement = "7.00 to 8.00"

[[record]]
compound = "O=C(N[C@@H]1COCc2c1cnn2-c1c(F)cccc1Cl)c1n[nH]c2c1CCCC2"
recorded_measurement = "7.00 to 8.00"

[[record]]
compound = "Cc1cccc(Cl)c1-n1ncc2c1COC[C@H]2NC(=O)c1n[nH]c2c1CCCC2"
recorded_measurement = "7.00 to 8.00"

[[record]]
compound = "CCN(CC)C(=O)c1cccc(-n2ncc3c2COC[C@H]3NC(=O)c2ncn3c2CCCC3)c1Cl"
recorded_measurement = "7.00 to 8.00"

[[record]]
compound = "Cc1cnc(C(=O)N[C@@H]2COCc3c2cnn3-c2c(F)cccc2Cl)cc1C"
recorded_measurement = "7.00 to 8.00"

[[record]]
compound = "O=C(N[C@@H]1COCc2c1cnn2-c1cccc(C(=O)N2CCCC2)c1Cl)c1ncn2c1CCCC2"
recorded_measurement = "7.00 to 8.00"

[[record]]
compound = "COCCOc1cccc(-n2ncc3c2COC[C@H]3NC(=O)c2ncn3c2CCCC3)c1Cl"
recorded_measurement = "> 8.00"

[[record]]
compound = "COc1ccc(F)c(-n2ncc3c2COC[C@H]3NC(=O)c2cc(C)c(C)cn2)c1Cl"
recorded_measurement = "7.00 to 8.00"

[[record]]
compound = "COc1cccc(-n2ncc3c2COC[C@H]3NC(=O)c2n[nH]c3c2CCCC3)c1Cl"
recorded_measurement = "> 8.00"

[[record]]
compound = "O=C(N[C@@H]1COCc2c1cnn2-c1cccc(C(F)(F)F)c1Cl)c1ncn2c1CCCC2"
recorded_measurement = "> 8.00"

[[record]]
compound = "Cc1cnc(C(=O)N[C@@H]2COCc3c2cnn3-c2c(C)cccc2Cl)cc1C"
recorded_measurement = "7.00 to 8.00"

[[record]]
compound = "O=C(N[C@H]1COCc2c1cnn2-c1c(Cl)cccc1Cl)c1ncn2c1CCCC2 (single isomer, unassigned)"
recorded_measurement = "7.00 to 8.00"

[[record]]
compound = "COc1cccc(C)c1-n1ncc2c1COC[C@H]2NC(=O)c1ncn2c1CCCC2"
recorded_measurement = "7.00 to 8.00"

[[record]]
compound = "COc1ccc(F)c(-n2ncc3c2COC[C@H]3NC(=O)c2ncn3c2CCCC3)c1Cl (single isomer, unassigned)"
recorded_measurement = "> 8.00"

[[record]]
compound = "CN(C)C(=O)COc1cccc(-n2ncc3c2COC[C@H]3NC(=O)c2ncn3c2CCCC3)c1Cl"
recorded_measurement = "7.00 to 8.00"

[[record]]
compound = "COc1cccc(Cl)c1-n1ncc2c1COC[C@H]2NC(=O)c1ncn2c1CCCC2"
recorded_measurement = "7.00 to 8.00"

